# measuredTarget: T1, Human mature myostatin (myostatin mature form; recombinant mature myostatin) (human (mature form 100% identical in …, UniProt O08689 268-376 (mouse entry), biotinylated in the Biacore assay (immobilized on a streptavidin chip); not labelled in the HEK Blue Assay)
# T1 construct: Disulfide-bonded homodimer of the C-terminal growth factor domain, purified from latent myostatin expressed in FreeStyle293-F cells; also called GDF-8 mature form; C-terminal growth factor domain of human myostatin
# T1 sequence: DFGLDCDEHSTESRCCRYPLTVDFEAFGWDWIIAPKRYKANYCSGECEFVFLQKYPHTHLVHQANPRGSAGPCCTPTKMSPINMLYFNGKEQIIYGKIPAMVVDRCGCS
# assayText: SPR, Biacore T200, 37 degrees C; biotinylated mature myostatin on streptavidin chip, 100 nM antibody bound at pH 7.4; dissociation phase at pH 7.4
resultType: koff

# binder, resultType, measuredValue
measured = [
    ("MS_M22601H1020-SG1/M22608L0744-SK1 (antibody, human IgG1, kappa, V domains shown, pH-dependent variant of MSLO00-SG1; also called MSLO01-SG1; LO01-SG1) VH: EVQLVESGGGLVQPGGSLRLSCAVSGFTLSHYVKGWVRQAPGKGLEWIGIINISGSTYYASWAKGRFTISRDNSKNTVYLQMNSLRAEDTAVYFCARGHDNFGYSYHDFNLWGQGTLVTVSS VL: AVVMTQSPATLSLSPGERVTLSCQASQSIHHELSWYQQKPGQPPKLLIYLASTLASGVPSRFKGSGSGTDFTLTISSLQPEDAATYYCQTYDGISHYGVAFGQGTKVEIKR", "koff", "0.000131 s⁻¹"),
]

All figures here come from patent US20190002548A1.
